Each entry below lists one item and its recorded pIC50 value.
Target: human GPR68 (Homo sapiens, UniProt Q15743)
Construct: encoding full-length human GPR68 (uniprot ID: Q15743); expressed in transfected cells; host or cells: HEK293T
Sequence (Q15743 whole entry): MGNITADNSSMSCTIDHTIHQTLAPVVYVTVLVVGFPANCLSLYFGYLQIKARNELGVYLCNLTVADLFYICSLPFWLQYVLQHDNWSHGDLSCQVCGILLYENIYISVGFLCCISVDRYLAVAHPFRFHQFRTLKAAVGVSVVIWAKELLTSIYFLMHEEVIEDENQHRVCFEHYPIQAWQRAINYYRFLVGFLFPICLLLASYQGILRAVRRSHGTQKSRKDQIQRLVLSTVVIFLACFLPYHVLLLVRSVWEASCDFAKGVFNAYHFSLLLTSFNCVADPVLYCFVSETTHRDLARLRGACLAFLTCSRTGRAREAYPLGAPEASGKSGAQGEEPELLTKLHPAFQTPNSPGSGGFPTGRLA
Experiment: GPR68 Biochemical Assay (Promega GloSensor cAMP assay, GPR68 antagonism)
Type: cell-based
Conditions: HEK293T cells transiently expressing hGPR68, antagonism of pH 5.5 stimulated cAMP, 15 min, read-out: hGPR68 IC50
pIC50: −log10 of the molar value.

Look over these answered cases.
                                   compound  reported_value
0  COCc1nn2c(C(=O)NC3CCc4ncsc4C3)ccnc2c1C(N)=O (centres unmarked)    6.30 to 7.30
1  NC(=O)c1c(C2CC2)nc2c(C(=O)NC3Cc4cccnc4C3)ccnn12 (centres unmarked)          > 7.30
2  NC(=O)c1cnn2c(C(=O)NC3CCc4ccncc4C3)ccnc12 (centres unmarked)    4.00 to 4.30
3  NC(=O)c1c(C2CC2)nc2c(C(=O)NC3CCC(F)(F)CC3)ccnn12          > 7.30

Query compound follows.
Exercise: // pIC50 lookup, key: COCc1nn2c(C(=O)NC3COc4ncccc43)ccnc2c1C(N)=O (centres unmarked)
Key: > 7.30

====

Target: human GPR68 (Homo sapiens)
Construct: encoding full-length human GPR68 (uniprot ID: Q15743); expressed in transfected cells; host or cells: HEK293T
Assay: GPR68 Biochemical Assay (Promega GloSensor cAMP assay, GPR68 antagonism)
Type: cell-based
Details: HEK293T cells transiently expressing hGPR68, antagonism of pH 5.5 stimulated cAMP, 15 min, read-out: hGPR68 IC50
property measured: IC50

Look over these answered cases.
                                   compound  property_measured  reported_value
0  COCc1nn2c(C(=O)NC3CCC(F)(F)c4ccccc43)cc(C)nc2c1C(N)=O (centres unmarked) [Compound 226]               IC50         < 50 nM
1  COCc1nn2c(C(=O)NCc3ccccc3OC)ccnc2c1C(N)=O [Compound 199]               IC50    50 to 500 nM
2  Cc1nn2c(C(=O)NC3Cc4cccnc4C3)ccnc2c1C(N)=O (centres unmarked) [Compound 49]               IC50  500 to 5000 nM

Exercise: // IC50 lookup, key: COCc1nn2c(C(=O)NC3Cc4cccc(F)c4C3)ccnc2c1C(N)=O (centres unmarked) [Compound 91]
Key: < 50 nM

Exercise: // IC50 lookup, key: COCc1nn2c(C(=O)Nc3ccc(CN(C)C)cc3)ccnc2c1C(N)=O [Compound 62]
Key: 500 to 5000 nM

Exercise: // IC50 lookup, key: COCc1nn2c(C(=O)NC3CCC(F)(F)CC3F)ccnc2c1C(N)=O (mixture of isomers) [Compound 154]
Key: 50 to 500 nM

Exercise: // IC50 lookup, key: CN(C)Cc1nn2c(C(=O)NC3Cc4ccccc4C3)ccnc2c1C(N)=O [Compound 29]
Key: 500 to 5000 nM

Exercise: // IC50 lookup, key: COCc1nn2c(C(=O)NC3Cc4cc(F)c(F)cc4C3)ccnc2c1C(N)=O [Compound 195]
Key: < 50 nM

Exercise: // IC50 lookup, key: COCc1nn2c(C(=O)NC3Cc4cccnc4C3)ccnc2c1C(N)=O (centres unmarked) [Compound 60]
Key: < 50 nM

Exercise: // IC50 lookup, key: COCc1nn2c(C(=O)NCc3cnn(C)c3)ccnc2c1C(N)=O [Compound 63]
Key: 500 to 5000 nM

Exercise: // IC50 lookup, key: CCCc1nn2c(C(=O)NC3Cc4ccccc4C3)ccnc2c1C(N)=O [Compound 139]
Key: < 50 nM

Exercise: // IC50 lookup, key: COCc1nn2c(C(=O)Nc3cnc4c(F)cccc4c3)ccnc2c1C(N)=O [Compound 117]
Key: < 50 nM

Exercise: // IC50 lookup, key: COCc1nn2c(C(=O)NC3Cc4cccnc4C3)ccnc2c1C(N)=O (single isomer, unassigned) [Compound 146]
Key: 50 to 500 nM

Exercise: // IC50 lookup, key: CCOCc1nn2c(C(=O)N[C@H]3C[C@@H](OC(F)(F)F)C3)ccnc2c1C(N)=O [Compound 205]
Key: 50 to 500 nM

Exercise: // IC50 lookup, key: COCc1nn2c(C(=O)N[C@H]3C[C@@H](OC(F)(F)F)C3)ccnc2c1C(N)=O [Compound 61]
Key: < 50 nM

Exercise: // IC50 lookup, key: COCc1nn2c(C(=O)N[C@H]3CCc4ccccc43)ccnc2c1C(N)=O [Compound 183]
Key: < 50 nM

Exercise: // IC50 lookup, key: COCc1nn2c(C(=O)NC3CC(F)(F)c4ccccc43)cc(C)nc2c1C(N)=O (centres unmarked) [Compound 232]
Key: < 50 nM

Exercise: // IC50 lookup, key: COCc1nn2c(C(=O)NC3CCOc4ncccc43)ccnc2c1C(N)=O (centres unmarked) [Compound 171]
Key: 50 to 500 nM

Exercise: // IC50 lookup, key: NC(=O)c1cnn2c(C(=O)NC3CC(F)(F)C3)ccnc12 [Compound 102]
Key: 500 to 5000 nM

Exercise: // IC50 lookup, key: COCc1nc2c(C(=O)N[C@H]3C[C@@H](OC(F)(F)F)C3)ccnn2c1C(N)=O [Compound 55]
Key: 50 to 500 nM

Exercise: // IC50 lookup, key: NC(=O)c1cnn2c(C(=O)NC3CCC(F)(F)CC3)ccnc12 [Compound 103]
Key: 500 to 5000 nM

Exercise: // IC50 lookup, key: [2H]C([2H])([2H])OCc1nn2c(C(=O)N[C@H]3C[C@@H](OC(F)(F)F)C3)ccnc2c1C(N)=O [Compound 157]
Key: < 50 nM

Exercise: // IC50 lookup, key: Cc1cc(C(=O)NC2CCS(=O)(=O)c3ccccc32)n2nc(C3CC3)c(C(N)=O)c2n1 (centres unmarked) [Compound 242]
Key: < 50 nM

Exercise: // IC50 lookup, key: CNC(=O)c1c(-c2ccccc2)nn2c(C(=O)NC3Cc4ccccc4C3)cccc12 [Compound 40]
Key: 50000 to 100000 nM
